system_tested: T1, hAng2 (Homo sapiens, UniProt O15123)
T1 sequence (O15123 19-496): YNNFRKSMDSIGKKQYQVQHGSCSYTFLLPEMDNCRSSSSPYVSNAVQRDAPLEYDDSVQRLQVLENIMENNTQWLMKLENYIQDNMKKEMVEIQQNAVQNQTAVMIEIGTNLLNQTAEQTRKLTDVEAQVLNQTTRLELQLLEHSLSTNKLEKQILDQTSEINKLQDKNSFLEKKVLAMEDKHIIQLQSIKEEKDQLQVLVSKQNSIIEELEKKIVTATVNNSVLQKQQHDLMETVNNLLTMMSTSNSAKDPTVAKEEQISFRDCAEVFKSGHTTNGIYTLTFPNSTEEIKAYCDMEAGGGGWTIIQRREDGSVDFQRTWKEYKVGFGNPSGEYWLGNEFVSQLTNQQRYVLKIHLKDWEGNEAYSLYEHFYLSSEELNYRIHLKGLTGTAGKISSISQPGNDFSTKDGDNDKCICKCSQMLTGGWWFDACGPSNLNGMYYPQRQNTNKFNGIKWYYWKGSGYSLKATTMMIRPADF
procedure_text: OCTET affinity of mouse monoclonal anti-Ang2 antibodies against hAng2
condition_set: hAng2 fixed on AR2G biosensor, 1:1 binding model

molecule: 2C8: mouse monoclonal anti-Ang2 antibody; VH SEQ ID NO: 19, VL SEQ ID NO: 21; hybridoma KCLRF-BP-00417 (antibody, V domains shown, Heavy Chain Variable Region; Light Chain Variable Region, mouse monoclonal anti-Ang2 antibody; hybridoma KCLRF-BP-00417) VH: QVQLQQSGPQLVRPGASVKISCKASGYSFTSYWMHWVKQRPGQGLEWIGMIDPSDSETRLNQKFKDKASLTVDKSSSTAYMQLSSPTSGDSAVYYCARRFYYGSDWYFDVWGAGSTVTVSS VL: DIVMTQSHKFMSTSVGDRVSITCKASQDVGTAVAWYQQKPGQSPKLLIYWASTRHTGVPDRFTGSGSGTDFTLTISNVQSEDLADYFCQQYSSYPLTFGSGTKLEIK
scale_unit: M⁻¹ s⁻¹
Kon: 77800

molecule: 4E2: mouse monoclonal anti-Ang2 antibody; VH SEQ ID NO: 39, VL SEQ ID NO: 41 (antibody, V domains shown, Heavy Chain Variable Region; Light Chain Variable Region) VH: EVQLQQSGPELEKPGASVKISCKASGYSFTGYNMNWVKQSNGKSLEWIGNIDPYYGGTSYNQKFKGKATLTVDKSSSTAYMQLKSLTSEDSAVYYCVRYGNYVDYWGQGTTLTVSS VL: DIVMTQSHKFMSTSVGDRVSITCKASQDVSTAVAWYQQKPGQSPKLLIYWASTRHTGVPDRFTGSGSGTDYTLTISSVQAEDLALYYCQQHYNTPPTFGSGTKLEIK
scale_unit: M⁻¹ s⁻¹
Kon: 28300

molecule: 2F10: mouse monoclonal anti-Ang2 antibody; VH SEQ ID NO: 29, VL SEQ ID NO: 31 (antibody, V domains shown, Heavy Chain Variable Region; Light Chain Variable Region) VH: QVQLVESGGGLVKPGGSLKLSCAASGFTFSDYYMYWIRQTPEKRLEWVATINDGGSYTYYPDSVKGRFTISRDNAKNNLYLQMSSLKSEDTAMYYCARDWGLRPWFVYWGQGTLVTVSA VL: DIVMTQSHKFMSTSVGDRVSITCKASQDVSTAVAWYQQKPGQSPKLLIYWASTRHTGVPDRFTGSGSGTDYTLTISSVQAEDLALYYCQQHYTTPPTFGSGTKLEIK
scale_unit: M⁻¹ s⁻¹
Kon: 124000
